# test-target: recombinant human factor Xa (Homo sapiens)
# protocol-notes: Factor Xa inhibition assay (chromogenic substrate S-2765)
# Type: biochemical
# measurement-context: Ki, factor Xa, time-dependent inhibition, incubation time 15 min
parameter-measured: pKi
On this scale, pKi is minus log10 of a concentration expressed in M (mol/L).

Would you please give the reported pKi of N=C(N)N1CCC(C(=O)Nc2cccc(OCc3cc(-c4ccc(Cl)s4)on3)c2)CC1 [Compound 3] with recombinant human factor Xa (Homo sapiens)?
7.77

###

Listing of recorded Ki by entry.
# test-target: bovine thrombin (Bos taurus, UniProt P00735)
# protocol-notes: Thrombin inhibition assay (chromogenic substrate S-2238)
# Assay type: biochemical
# measurement-context: Cheng-Prousoff from IC50; mean of three measurements; read-out: Enzyme Inhibition, Ki, Thrombin
Where a name gives a salt, the structure may show the parent alone.
Field format: number, assumed µM, no unit text.

N=C(N)c1ccc2cc(OC(=O)c3ccc(N=C(N)N)cc3)ccc2c1 [Nafamostat, Nafamostat mesylate] | 0.01

Please turn your attention to the following entry.
Supply measured Ki of N=C(N)N1CCC(C(=O)Nc2ccccc2OCc2cc(-c3ccc(Cl)s3)on2)CC1 in your reply.
6.82

###

# test-target: bovine thrombin (Bos taurus)
# protocol-notes: Thrombin inhibition assay (chromogenic substrate S-2238)
# Type: biochemical
parameter-measured: Ki
Quick note: unit goes after the number.

Would you please give the reported Ki of O=C(NC[C@H]1CN(c2ccc(N3CCOCC3=O)cc2)C(=O)O1)c1ccc(Cl)s1 with bovine thrombin (Bos taurus)?
12 µM

###

# test-target: recombinant human factor Xa (Homo sapiens, UniProt P00742)
# Sequence (P00742 235-488 limits assumed): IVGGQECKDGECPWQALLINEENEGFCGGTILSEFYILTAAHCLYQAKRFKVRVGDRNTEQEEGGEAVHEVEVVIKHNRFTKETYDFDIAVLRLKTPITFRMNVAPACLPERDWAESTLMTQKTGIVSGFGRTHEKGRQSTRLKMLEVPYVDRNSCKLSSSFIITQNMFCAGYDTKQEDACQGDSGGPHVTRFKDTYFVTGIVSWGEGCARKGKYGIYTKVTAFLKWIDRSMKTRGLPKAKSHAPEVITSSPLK
# Sequence (P00742 41-179 partner limits assumed): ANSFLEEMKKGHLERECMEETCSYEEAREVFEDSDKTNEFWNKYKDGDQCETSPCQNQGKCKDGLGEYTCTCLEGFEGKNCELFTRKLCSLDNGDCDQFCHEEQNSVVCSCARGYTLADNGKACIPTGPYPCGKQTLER
# protocol-notes: Factor Xa inhibition assay (chromogenic substrate S-2765)
# Assay type: biochemical
# measurement-context: incubation time 30 min; read-out: Ki, factor Xa, time-dependent inhibition
Where a name gives a salt, the structure may show the parent alone.
parameter-measured: Ki
Quick note: unit goes after the number.

Supply measured Ki of N=C(N)c1ccc2cc(OC(=O)c3ccc(N=C(N)N)cc3)ccc2c1 [Nafamostat, Nafamostat mesylate] in your reply.
225 nM

###

# protocol-notes: Cytotoxicity assay (XTT) on VERO cells
# Assay type: cell-based, African green monkey
# measurement-context: African green monkey
Listing of recorded CC50 at 72 h by entry.

CC(C)N1CCC(C(=O)Nc2ccccc2OCc2cc(-c3ccc(Cl)s3)on2)CC1 | > 200 µM

Please turn your attention to the following entry.
Supply measured CC50 at 72 h of N=C(N)N1CCC(C(=O)Nc2ccccc2OCc2cc(-c3ccc(Cl)s3)on2)CC1 in your reply.
> 200 µM

###

# protocol-notes: Stability in phosphate buffer solution pH 7.4 (RP-HPLC)
# Format: physicochemical
# measurement-context: phosphate buffer solution (PBS); PBS pH 7.4, 37 °C
Structures can show the parent of a compound that is named as a salt.
parameter-measured: half-life at 100 µM

Supply measured half-life at 100 µM of N=C(N)c1ccc2cc(OC(=O)c3ccc(N=C(N)N)cc3)ccc2c1 [Nafamostat, Nafamostat mesylate] in your reply.
~45 h

###

# test-target: recombinant human factor Xa (Homo sapiens, UniProt P00742)
# protocol-notes: Factor Xa inhibition assay (chromogenic substrate S-2765)
# Type: biochemical
# measurement-context: Cheng-Prousoff from IC50; mean of three measurements; read-out: Enzyme Inhibition, Ki, Factor Xa
Listing of recorded Ki by entry.
Field format: number, assumed nM, no unit text.

Reference set, count: 2
CC(C)N1CCC(C(=O)Nc2ccccc2OCc2cc(-c3ccc(Cl)s3)on2)CC1 [Compound 2] | 0.3
N=C(N)N1CCC(C(=O)Nc2ccccc2OCc2cc(-c3ccc(Cl)s3)on2)CC1 [Compound 1] | 2

Please turn your attention to the following entry.
Would you please give the reported Ki of N=C(N)N1CCC(C(=O)Nc2cccc(OCc3cc(-c4ccc(Cl)s4)on3)c2)CC1 [Compound 3] with recombinant human factor Xa (Homo sapiens, UniProt P00742)?
15

###

# test-target: bovine thrombin (Bos taurus, UniProt P00735)
# protocol-notes: Thrombin inhibition assay (chromogenic substrate S-2238)
# Type: biochemical
# measurement-context: incubation time 30 min; read-out: Ki, thrombin, time-dependent inhibition
Where a name gives a salt, the structure may show the parent alone.
parameter-measured: Ki (nM)
Field format: number, assumed nM, no unit text.

Supply measured Ki of N=C(N)c1ccc2cc(OC(=O)c3ccc(N=C(N)N)cc3)ccc2c1 [Nafamostat, Nafamostat mesylate] in your reply.
5

###

# protocol-notes: Cytotoxicity assay (XTT) on VERO cells
# Assay type: cell-based, African green monkey
# measurement-context: African green monkey; 72 h, XTT; read-out: VERO Cells Toxicity, CC50
parameter-measured: CC50 at 72 h (µM)
Field format: number, assumed µM, no unit text.

Supply measured CC50 at 72 h of N=C(N)N1CCC(C(=O)Nc2cccc(OCc3cc(-c4ccc(Cl)s4)on3)c2)CC1 [Compound 3] in your reply.
155

###

# protocol-notes: Cytotoxicity assay (XTT) on VERO cells
# Format: cell-based, African green monkey
# measurement-context: African green monkey, VERO cells, confluent monolayers (mock-infected); 72 h, XTT; read-out: VERO Cells Toxicity, CC50
Structures can show the parent of a compound that is named as a salt.
Listing of recorded CC50 at 72 h by entry.

N=C(N)c1ccc2cc(OC(=O)c3ccc(N=C(N)N)cc3)ccc2c1 [Nafamostat, Nafamostat mesylate] | > 200 µM
O=C(NC[C@H]1CN(c2ccc(N3CCOCC3=O)cc2)C(=O)O1)c1ccc(Cl)s1 [Rivaroxaban, rivaroxaban] | > 200 µM

Please turn your attention to the following entry.
Supply measured CC50 at 72 h of [H]/N=C(/N)c1ccc(NCc2nc3cc(C(=O)N(CCC(=O)O)c4ccccn4)ccc3n2C)cc1 [Dabigatran, dabigatran] in your reply.
> 200 µM

This collection of values is drawn from paper PMC9415951.
